System: microbial clusters MY, KR, DN, MC, BL, RM, SP, PA, HR
Test: Broad-spectrum activity score (in-house scoring matrix)
Settings: sum over 9 microbial clusters: (+) = 1, (X) = 0, Fuel x = -1
Experimental: Table S4. Summarizing the broad-spectrum activity of the peptides, considering the MIC value/ efficacy to control microbial growth upon fuel co-incubation Peptides Bacterial clusters Fungal Actinobacteria Firmicutes Proteobacteria Asco- […] Peptides identified based on the scoring matrix, where (+) =1 (implying peptide activity in fuel environment); (X) = 0 (implying no activity in the desired range, indicated by microbial proliferation); Fuel x = -1(implying no activity in fuel environment). […]
MEASUREMENT_NAME: Score
One number for each entry.

Solved cases (3 shown):
| MOLECULE | MEASUREMENT_NAME | NUMERIC_VALUE |
| --- | --- | --- |
| CC[C@H](C)[C@H](N)C(=O)N[C@@H](CC(C)C)C(=O)N[C@@H](Cc1c[nH]c2ccccc12)C(=O)N[C@@H](Cc1c[nH]c2ccccc12)C(=O)N[C@@H](CCCCN)C(=O)N[C@@H](Cc1c[nH]c2ccccc12)C(=O)N1CCC[C@H]1C(=O)N[C@@H](Cc1c[nH]c2ccccc12)C(=O)N[C@@H](Cc1c[nH]c2ccccc12)C(=O)N1CCC[C@H]1C(=O)N[C@@H](Cc1c[nH]c2ccccc12)C(=O)N[C@@H](CCCNC(=N)N)C(=O)N[C@@H](CCCNC(=N)N)C(=O)O [P15] | Score | 3 |
| CC[C@H](C)[C@H](N)C(=O)N[C@H](C(=O)N1CCC[C@H]1C(=O)N[C@@H](Cc1c[nH]c2ccccc12)C(=O)N[C@@H](CCCCN)C(=O)N[C@@H](Cc1c[nH]c2ccccc12)C(=O)N1CCC[C@H]1C(=O)N[C@@H](Cc1c[nH]c2ccccc12)C(=O)N[C@@H](Cc1c[nH]c2ccccc12)C(=O)N1CCC[C@H]1C(=O)N[C@@H](Cc1c[nH]c2ccccc12)C(=O)N[C@@H](CCCNC(=N)N)C(=O)N[C@@H](CCCNC(=N)N)C(=O)O)[C@@H](C)CC [P13] | Score | 2 |
| CC[C@H](C)[C@H](N)C(=O)N[C@@H](CC(C)C)C(=O)N[C@H](C(=O)N[C@@H](Cc1c[nH]c2ccccc12)C(=O)N[C@@H](CCCCN)C(=O)N[C@@H](Cc1c[nH]c2ccccc12)C(=O)N1CCC[C@H]1C(=O)N[C@@H](Cc1c[nH]c2ccccc12)C(=O)N[C@@H](Cc1c[nH]c2ccccc12)C(=O)N1CCC[C@H]1C(=O)N[C@@H](Cc1c[nH]c2ccccc12)C(=O)N[C@@H](CCCNC(=N)N)C(=O)N[C@@H](CCCNC(=N)N)C(=O)O)[C@@H](C)CC [P18] | Score | 3 |

Proceed to the following item.
Exercise: Form field: reported Score of CC[C@H](C)[C@H](N)C(=O)N[C@@H](CC(C)C)C(=O)N[C@@H](Cc1ccccc1)C(=O)N[C@@H](Cc1c[nH]c2ccccc12)C(=O)N[C@@H](CCCCN)C(=O)N[C@@H](Cc1c[nH]c2ccccc12)C(=O)N1CCC[C@H]1C(=O)N[C@@H](Cc1c[nH]c2ccccc12)C(=O)N[C@@H](Cc1c[nH]c2ccccc12)C(=O)N1CCC[C@H]1C(=O)N[C@@H](Cc1c[nH]c2ccccc12)C(=O)N[C@@H](CCCNC(=N)N)C(=O)N[C@@H](CCCNC(=N)N)C(=O)O [P16]
Solution: 4

----------
system: Kocuria rosea (KR); experiment: Effectiveness of peptides on spiked fuel samples (aqueous layer); format: cell-based; parameters: key: (+) =1 (implying peptide activity in fuel environment); (X) = 0 (implying no activity in the desired range, indicated by microbial proliferation); Fuel x = -1(implying no activity in fuel environment); settings: initial screening in spiked fuel
MEASUREMENT_NAME: activity considering MIC value/efficacy upon fuel co-incubation

| CPD_SMILES | RESULT |
| --- | --- |
| CC[C@H](C)[C@H](N)C(=O)N[C@@H](CC(C)C)C(=O)N[C@@H](Cc1ccccc1)C(=O)N[C@@H](Cc1c[nH]c2ccccc12)C(=O)N[C@@H](CCCCN)C(=O)N[C@@H](Cc1c[nH]c2ccccc12)C(=O)N1CCC[C@H]1C(=O)N[C@@H](Cc1c[nH]c2ccccc12)C(=O)N[C@@H](Cc1c[nH]c2ccccc12)C(=O)N1CCC[C@H]1C(=O)N[C@@H](Cc1c[nH]c2ccccc12)C(=O)N[C@@H](CCCNC(=N)N)C(=O)N[C@@H](CCCNC(=N)N)C(=O)O | + |
| CC[C@H](C)[C@H](N)C(=O)N[C@@H](CC(C)C)C(=O)N[C@@H](Cc1c[nH]c2ccccc12)C(=O)N[C@@H](Cc1c[nH]c2ccccc12)C(=O)N[C@@H](CCCCN)C(=O)N[C@@H](Cc1c[nH]c2ccccc12)C(=O)N1CCC[C@H]1C(=O)N[C@@H](Cc1c[nH]c2ccccc12)C(=O)N[C@@H](Cc1c[nH]c2ccccc12)C(=O)N1CCC[C@H]1C(=O)N[C@@H](Cc1c[nH]c2ccccc12)C(=O)N[C@@H](CCCNC(=N)N)C(=O)N[C@@H](CCCNC(=N)N)C(=O)O | X |
